Origin of values: ChEMBL document CHEMBL4811254

- MEASUREMENT_TARGET: Genome polyprotein (dengue virus type 2) (UniProt P29990)
- ASSAY_SUMMARY: Inhibition of NS2B-NS3 protease in DENV2proHeLa system assessed as inhibition of luciferase signal at 12.5 uM incubated for 24 hrs by luciferase reporter gene assay
- Format: cell-based
- RECORDED_CONDITIONS: HeLa
Threshold check on inhibition: at or above 70% gives rule met, strictly below gives rule not met.

{"MOLECULE": "COCCOCC(=O)N[C@H](C(=O)NCc1ccc(C(N)=O)cc1)c1ccc(OCc2ccccc2)cc1", "ANSWER_LABEL": "rule not met"}

Task: Decide: inhibition of `NC(=O)c1cccc(NC(=O)[C@@H](NC(=O)c2ccc(-c3ccco3)cc2)c2ccc(OCc3ccccc3)cc2)c1` >= 70%?
Result: rule met

Task: Confirm if inhibition reported for the compound `Cc1ccc(C(=O)c2cc(O)c(O)c([N+](=O)[O-])c2)cc1` is 70% or above.
Result: rule not met

Task: Has `NC(=O)c1ccc(CNC(=O)[C@@H](NC(=O)/C=C/c2ccccc2)c2ccc(OCc3ccccc3)cc2)cc1` a recorded inhibition greater than or equal to 70%?
Result: rule not met

Task: Decide: is the reported value of inhibition for `CCCCCC(=O)N[C@H](C(=O)NCc1ccccc1)c1ccc(OCc2ccccc2)cc1` equal to or greater than 70%?
Result: rule not met

Task: Can `NC(=O)c1cccc(NC(=O)[C@@H](NC(=O)c2ccc(N3CCOCC3)cc2)c2ccc(OCc3ccccc3)cc2)c1` be said to have inhibition at or above 70%?
Result: rule met

Task: Has `NC(=O)c1cccc(NC(=O)[C@@H](NC(=O)c2ccc(Oc3ccc(C(F)(F)F)cc3)cc2)c2ccc(OCc3ccccc3)cc2)c1` a recorded inhibition greater than or equal to 70%?
Result: rule met

Task: Please indicate if the recorded inhibition for `CCCCCC(=O)N[C@H](C(=O)NCc1ccc(C(N)=O)cc1)c1ccc(OCc2ccc(C(C)(C)C)cc2)cc1` meets or exceeds 70%.
Result: rule not met

Task: Please check the record `NC(=O)c1ccc(CNC(=O)[C@@H](N)c2ccc(OCc3ccccc3)cc2)cc1` and state if its inhibition is at or above 70%.
Result: rule not met

Task: Textbook exercise: given the entry `NC(=O)c1cccc(NC(=O)[C@@H](NC(=O)c2ccc(Oc3ccccc3)cc2)c2ccc(OCc3ccccc3)cc2)c1` , state whether its inhibition is greater than or equal to 70%.
Result: rule met

Task: Please indicate if the recorded inhibition for `CCCCCC(=O)N[C@H](C(=O)NCc1ccc(C(=O)NO)cc1)c1ccc(OCc2ccccc2)cc1` meets or exceeds 70%.
Result: rule not met

Task: Record `CCCCCC(=O)N[C@@H](C(=O)NCc1ccc(C(N)=O)cc1)c1ccc(OCc2ccc(Cl)c(Cl)c2)cc1` ; criterion: inhibition no lower than 70%. Met?
Result: rule not met

Task: Is it the case that `NC(=O)c1ccc(CNC(=O)[C@@H](NC(=O)c2ccc(-c3cccs3)s2)c2ccc(OCc3ccccc3)cc2)cc1` has inhibition reaching or exceeding 70%?
Result: rule not met

Task: Hi, just wondering whether `CCCCCC(=O)N[C@H](C(=O)NCc1ccc(C(N)=O)cc1)c1ccc(OCc2ccccc2)cc1` shows inhibition of 70% or higher.
Result: rule not met

Task: Would you say `CCCCCC(=O)N[C@H](C(=O)Nc1ccc(CC(N)=O)cc1)c1ccc(OCc2ccccc2)cc1` shows inhibition at minimum 70%?
Result: rule not met

Task: Textbook exercise: given the entry `CCCCCC(=O)N[C@H](C(=O)NCc1ccc(C(N)=O)cc1)c1ccc(OCc2ccc(O)cc2)cc1` , state whether its inhibition is greater than or equal to 70%.
Result: rule not met

----------
inhibition overview
- MEASUREMENT_TARGET: Genome polyprotein (dengue virus type 2)
- ASSAY_SUMMARY: Inhibition of NS2B-NS3 protease in DENV2proHeLa system assessed as inhibition of luciferase signal at 12.5 uM incubated for 24 hrs by luciferase reporter gene assay
- Type: cell-based
- RECORDED_CONDITIONS: HeLa
Value expressed in %; do not type the unit.

What the record says about `COc1ccccc1Oc1ccc(C(=O)N[C@H](C(=O)Nc2cccc(C(N)=O)c2)c2ccc(OCc3ccccc3)cc2)cc1` : inhibition is 77

Just so you know, measured inhibition for `NC(=O)c1cccc(NC(=O)[C@@H](NC(=O)c2ccc(Oc3ccc4c(c3)OCO4)cc2)c2ccc(OCc3ccccc3)cc2)c1` came out at 78

// `NC(=O)c1ccc(CNC(=O)[C@@H](NC(=O)C2CCC2)c2ccc(OCc3ccccc3)cc2)cc1` : inhibition value = 45

Entry `NC(=O)c1ccc(CNC(=O)[C@@H](NC(=O)c2cc3ccccc3s2)c2ccc(OCc3ccccc3)cc2)cc1` — recorded inhibition = 71

GET /value?item= `NC(=O)c1cccc(NC(=O)[C@@H](NC(=O)c2cccc(Oc3ccccc3)c2)c2ccc(OCc3ccccc3)cc2)c1` &field=inhibition returns 84

# inhibition (compound: `CCCCCC(=O)N[C@@H](C(=O)NCc1ccc(C(N)=O)cc1)c1ccc(OCc2ccccc2)cc1` ) is 35

inhibition reported for this compound `CCCCCC(=O)N[C@H](C(=O)NCc1ccc(C(N)=O)cc1)c1ccc(OCc2cccc(OC)c2)cc1` : 61

response.value for `NCc1ccc(C(=O)N[C@H](C(=O)NCc2ccc(C(N)=O)cc2)c2ccc(OCc3ccccc3)cc2)cc1` (field: inhibition) = 24

// field: inhibition; key: `CCCCCC(=O)N[C@H](C(=O)NCc1ccc(C(N)=O)cc1)c1ccccc1` ; value = 15

----------
Collected pEC50 values appear next to each entry.
- MEASUREMENT_TARGET: Genome polyprotein (dengue virus type 2, UniProt P29990)
- ASSAY_SUMMARY: Inhibition of NS2B-NS3 protease in DENV2proHeLa system assessed as inhibition of luciferase signal incubated for 24 hrs by luciferase reporter gene assay
FYI, pEC50 means -log10 of a concentration in mol per litre.

{"MOLECULE": "CCCCCC(=O)N[C@H](C(=O)NCCc1ccc(O)cc1)c1ccc(OCc2ccccc2)cc1", "pEC50": 5.00}

So, `NC(=O)c1cccc(NC(=O)[C@@H](NC(=O)c2ccc(Oc3ccc4c(c3)OCO4)cc2)c2ccc(OCc3ccccc3)cc2)c1` ? Its pEC50 was 5.82

// field: pEC50; key: `NCc1ccc(C(=O)N[C@H](C(=O)NCc2ccc(C(N)=O)cc2)c2ccc(OCc3ccccc3)cc2)cc1` ; value = 4.54

Documented pEC50 of `CCCCCC(=O)N[C@H](C(=O)Nc1ccc(CO)cc1)c1ccc(OCc2ccccc2)cc1` : 4.74

Record `CCCCCC(=O)N[C@H](C(=O)NCc1ccc(C(N)=O)cc1)c1ccc(OCc2ccc(C(F)(F)F)cc2)cc1` . Reported pEC50: 5.01

----------
- MEASUREMENT_TARGET: Genome polyprotein (dengue virus type 2, UniProt P29990)
- ASSAY_SUMMARY: Inhibition of NS2B-NS3 protease in DENV2proHeLa system assessed as inhibition of luciferase signal incubated for 24 hrs by luciferase reporter gene assay
READOUT_TYPE: pEC50
Just the number, please; pEC50 means minus log10 of the concentration in mol/L.

Example compounds with recorded pEC50:
{"MOLECULE": "NC(=O)c1cccc(NC(=O)[C@@H](NC(=O)c2ccc(C(=O)N3CCOCC3)cc2)c2ccc(OCc3ccccc3)cc2)c1", "MEASUREMENT_TARGET": "Genome polyprotein (dengue virus type 2, UniProt P29990)", "pEC50": 4.82}
{"MOLECULE": "NC(=O)c1cccc(NC(=O)[C@@H](NC(=O)c2ccc(-c3ccc(Cl)cc3)cc2)c2ccc(OCc3ccccc3)cc2)c1", "MEASUREMENT_TARGET": "Genome polyprotein (dengue virus type 2, UniProt P29990)", "pEC50": 5.92}
{"MOLECULE": "NC(=O)c1cccc(NC(=O)[C@@H](NC(=O)c2ccc(C(=O)c3ccccc3)cc2)c2ccc(OCc3ccccc3)cc2)c1", "MEASUREMENT_TARGET": "Genome polyprotein (dengue virus type 2, UniProt P29990)", "pEC50": 6.41}
{"MOLECULE": "NC(=O)c1cccc(NC(=O)[C@@H](NC(=O)c2ccc(Oc3ccccc3)cc2)c2ccc(OCc3c(Cl)cccc3Cl)cc2)c1", "MEASUREMENT_TARGET": "Genome polyprotein (dengue virus type 2, UniProt P29990)", "pEC50": 5.66}
{"MOLECULE": "NC(=O)c1ccc(CNC(=O)[C@@H](NC(=O)c2ccc(OCc3ccccc3)cc2)c2ccc(OCc3ccccc3)cc2)cc1", "MEASUREMENT_TARGET": "Genome polyprotein (dengue virus type 2, UniProt P29990)", "pEC50": 5.40}

Entry `NC(=O)c1cccc(NC(=O)[C@@H](NC(=O)c2ccc3ccccc3c2)c2ccc(OCc3ccccc3)cc2)c1` ; assay system Genome polyprotein (dengue virus type 2, UniProt P29990); pEC50 recorded at 5.35

The compound `CCCCCCC(=O)N[C@H](C(=O)NCc1ccc(C(N)=O)cc1)c1ccc(OCc2ccccc2)cc1` on Genome polyprotein (dengue virus type 2, UniProt P29990): pEC50 was 5.10

Noted pEC50 for `CCCCCC(=O)N[C@H](C(=O)NCc1ccc(OC)cc1)c1ccc(OCc2ccccc2)cc1` , tested on Genome polyprotein (dengue virus type 2, UniProt P29990): 4.55
